- Assay notes: Metabolic stability in rat plasma assessed as compound remaining at 100 uM after 1 hr by LC/MS analysis
- Format: ADME, cell-free
- Particulars: read-out: Stability
Measured attribute: remaining at 1 h, 100 µM (%)
Give bare numbers, in %.

Reference set, count: 2
# Compound, remaining at 1 h, 100 µM / %
records = [
    ("CC1=C(c2nc(-c3ccc(C#N)cc3)cs2)C(c2cc3ccccc3n2C)NC(=O)N1 (stereo not drawn)", 95.6),
    ("CC1=C(c2nc(-c3ccc(C#N)cc3)cs2)C(c2ccc(Br)nc2)NC(=O)N1 (stereo not drawn)", 98.3),
]

Now take the following compound into account.
// sample CC1=C(c2nc(-c3ccc(C#N)cc3)cs2)C(c2ccc(O)cc2)NC(=O)N1 (stereo not drawn) , its remaining at 1 h, 100 µM was 100

###

- Assay notes: Metabolic stability in rat liver microsomes assessed as compound remaining at 4 uM preincubated for 5 mins followed by NADPH addition measured after 60 mins by LC/MS analysis
- Type: ADME, microsome
- Particulars: read-out: Stability
Measured attribute: remaining at 1 h, 4 µM (%)
Give bare numbers, in %.

Reference set, count: 2
# Molecule, remaining at 1 h, 4 µM / %
rows = [
    ("CC1=C(c2nc(-c3ccc(C#N)cc3)cs2)C(c2cc3ccccc3n2C)NC(=O)N1 (stereo not drawn)", 62.9),
    ("COc1ccc(C2NC(=O)NC(C)=C2c2nc(-c3ccc(C#N)cc3)cs2)cn1 (stereo not drawn)", 69.4),
]

Go through the items and report each one's remaining at 1 h, 4 µM.
1. CC1=C(c2nc(-c3ccc(C#N)cc3)cs2)C(c2ccc(O)cc2)NC(=O)N1 (stereo not drawn)
2. CC1=C(c2nc(-c3ccc(C#N)cc3)cs2)C(c2ccc(Cl)nc2)NC(=O)N1 (stereo not drawn)
3. CC1=C(c2nc(-c3ccc(C#N)cc3)cs2)C(c2ccc(F)nc2)NC(=O)N1 (stereo not drawn)
4. CC1=C(c2nc(-c3ccc(C#N)cc3)cs2)C(c2ccc(Br)nc2)NC(=O)N1 (stereo not drawn)
5. COc1ccc(C2NC(=O)NC(C)=C2c2nc(-c3ccc(C#N)cc3)cs2)cc1 (stereo not drawn)
6. CC1=C(c2nc(-c3ccc(C#N)cc3)cs2)C(c2cccc(O)c2)NC(=O)N1 (stereo not drawn)

stdout:
[100, 63.4, 49.4, 67.6, 63.1, 52.4]

###

- Assay notes: Cytotoxicity against human PBMC assessed as reduction in cell viability by MTS assay
- Type: cell-based
- Particulars: read-out: TC50 (the source's name)
Kindly state CC50 for each of the entries shown.
Answers are plain numbers, in µM.

Go through the items and report each one's CC50.
1. CC1=C(c2nc(-c3ccc(C#N)cc3)cs2)C(c2ccc(Oc3ccccc3)nc2)NC(=O)N1 (stereo not given)
2. CC1=C(c2nc(-c3ccc(C#N)cc3)cs2)C(c2cccc(O)c2)NC(=O)N1 (stereo not given)
3. CC1=C(c2nc(-c3ccc(C#N)cc3)cs2)C(c2cc3ccccc3[nH]2)NC(=O)N1 (stereo not given)
4. CC1=C(c2nc(-c3ccc(Br)cc3)cs2)C(c2cccc(O)c2)NC(=O)N1 (stereo not given)
5. CC1=C(c2nc(-c3ccc(F)cc3)cs2)C(c2cccc(O)c2)NC(=O)N1 (stereo not given)
6. CC1=C(c2nc(-c3ccc(C(F)(F)F)cc3)cs2)C(c2cccc(O)c2)NC(=O)N1 (stereo not given)
7. COc1ccc(-c2csc(C3=C(C)NC(=O)NC3c3cccc(O)c3)n2)cc1 (stereo not given)
8. CC1=C(c2nc(-c3ccc(C)cc3)cs2)C(c2cccc(O)c2)NC(=O)N1 (stereo not given)

stdout:
1. 67.5
2. 84
3. 69.8
4. 56
5. 58
6. 57
7. 91
8. 65

Go through the items and report each one's CC50.
1. CC1=C(c2nc(-c3cccc(C#N)c3)cs2)C(c2ccc(O)cc2)NC(=O)N1 (stereo not given)
2. CC1=C(c2nc(-c3ccc(Cl)cc3)cs2)C(c2cccc(O)c2)NC(=O)N1 (stereo not given)
3. CC1=C(c2nc(-c3ccc(C#N)cc3)cs2)C(c2ccnc3ccccc23)NC(=O)N1 (stereo not given)
4. CC1=C(c2nc(-c3cccc(C#N)c3)cs2)C(c2cccc(O)c2)NC(=O)N1 (stereo not given)
5. CC1=C(c2nc(-c3cccc(C#N)c3)cs2)C(c2cccc(O)c2)NC(=O)N1C (stereo not given)
6. CC1=C(c2nc(-c3cccc(O)c3)cs2)C(c2cccc(O)c2)NC(=O)N1 (stereo not given)

stdout:
1: 87.5; 2: 65; 3: 68.3; 4: 74; 5: 64.2; 6: 55

Go through the items and report each one's CC50.
1. CC1=C(c2nc(-c3ccc4ccccc4c3)cs2)C(c2cccc(O)c2)NC(=O)N1 (stereo not given)
2. COc1ccc(C2NC(=O)NC(C)=C2c2nc(-c3ccc(C#N)cc3)cs2)cc1 (stereo not given)

stdout:
1: 47; 2: 76.6
